tested on: E. coli CCUG 70662
Residues, ends and D or L forms follow the SMILES beside them.
So I've got a bunch of compounds here, and I need their MIC E. coli CCUG 70662+ values.
Please respond with the number in µg/mL and leave the unit unwritten.

MIC E. coli CCUG 70662+ for NCCCC[C@@H]1NC(=O)[C@H](CCCCN)NC(=O)[C@H](Cc2c[nH]c3ccccc23)NC(=O)[C@H](Cc2c[nH]c3ccccc23)NC(=O)[C@H](Cc2c[nH]c3ccccc23)NC(=O)[C@H](CCCCN)NC1=O [c(WWWKKK)] (HELM PEPTIDE1{W.W.W.K.K.K}$PEPTIDE1,PEPTIDE1,1:R1-6:R2$$$V2.0) ?
4

Same again, this time with N=C(N)NCCC[C@@H]1NC(=O)[C@H](Cc2c[nH]c3ccccc23)NC(=O)[C@H](CCCNC(=N)N)NC(=O)[C@H](Cc2c[nH]c3ccccc23)NC(=O)[C@H](CCCNC(=N)N)NC(=O)[C@H](Cc2c[nH]c3ccccc23)NC1=O [c(WRWRWR)] (HELM PEPTIDE1{W.R.W.R.W.R}$PEPTIDE1,PEPTIDE1,1:R1-6:R2$$$V2.0)
32

Also, NCCCC[C@@H]1NC(=O)[C@H](Cc2c[nH]c3ccccc23)NC(=O)[C@H](CCCCN)NC(=O)[C@H](Cc2c[nH]c3ccccc23)NC(=O)[C@H](CCCCN)NC(=O)[C@H](Cc2c[nH]c3ccccc23)NC1=O [c(WKWKWK)] (HELM PEPTIDE1{W.K.W.K.W.K}$PEPTIDE1,PEPTIDE1,1:R1-6:R2$$$V2.0) please.
64

How about N=C(N)NCCC[C@@H]1NC(=O)[C@H](CCCNC(=N)N)NC(=O)[C@H](Cc2c[nH]c3ccccc23)NC(=O)[C@H](Cc2c[nH]c3ccccc23)NC(=O)[C@H](Cc2c[nH]c3ccccc23)NC(=O)[C@H](CCCNC(=N)N)NC1=O [c(WWWRRR)] (HELM PEPTIDE1{W.W.W.R.R.R}$PEPTIDE1,PEPTIDE1,1:R1-6:R2$$$V2.0) ?
8
